Test system: Escherichia coli TOP10;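 note: peptides expressed intracellularly from a pBAD plasmid library in pooled LB shake-flask culture, induced with 0.3% L-arabinose, DNA abundance read by NGS, three biological replicates, DESeq2 with apeglm shrinkage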
Assay: shrunken log2 fold change of peptide-encoding DNA abundance (4.5 h post-induction vs induction); higher = less antimicrobial activity (less host growth inhibition)
Conditions: time post-induction: 4.5 h; library: site-saturation at positions 5, 18, 19, 20
REPORTED_PROPERTY: shrunken log2 fold change
No unit in the answer, only the number.

The value of shrunken log2 fold change measured for the sequence `RRIRFRPPRLPRPRPRPQFPPRP` turned out to be -0.16

The value of shrunken log2 fold change measured for the sequence `RRIRNRPPRLPRPRPRPRHAPRP` turned out to be 0.0219

The value of shrunken log2 fold change measured for the sequence `RRIRHRPPRLPRPRPRPKSRPRP` turned out to be -0.0231

The value of shrunken log2 fold change measured for the sequence `RRIRIRPPRLPRPRPRPYTPPRP` turned out to be -0.825

The value of shrunken log2 fold change measured for the sequence `RRIRTRPPRLPRPRPRPRCSPRP` turned out to be -0.262

The value of shrunken log2 fold change measured for the sequence `RRIRSRPPRLPRPRPRPYNDPRP` turned out to be -0.41

The value of shrunken log2 fold change measured for the sequence `RRIRFRPPRLPRPRPRPSNRPRP` turned out to be -0.381

The value of shrunken log2 fold change measured for the sequence `RRIRHRPPRLPRPRPRPLKDPRP` turned out to be -0.361

The value of shrunken log2 fold change measured for the sequence `RRIRFRPPRLPRPRPRPLAMPRP` turned out to be -0.0206

The value of shrunken log2 fold change measured for the sequence `RRIRHRPPRLPRPRPRPCLNPRP` turned out to be -0.263

The value of shrunken log2 fold change measured for the sequence `RRIRARPPRLPRPRPRPQMSPRP` turned out to be 0.0835

The value of shrunken log2 fold change measured for the sequence `RRIRTRPPRLPRPRPRPKWRPRP` turned out to be 0.394

The value of shrunken log2 fold change measured for the sequence `RRIRLRPPRLPRPRPRPMNYPRP` turned out to be -0.0583

The value of shrunken log2 fold change measured for the sequence `RRIRHRPPRLPRPRPRPGFKPRP` turned out to be -0.206

The value of shrunken log2 fold change measured for the sequence `RRIRCRPPRLPRPRPRPIAEPRP` turned out to be 0.247
